Tested on: human hepatocyte suspensions
Assay: Hepatocyte incubations, human
Type: in vitro ADME
Settings: human hepatocytes, 5 uM, 60 minutes; NR = no reaction
Experimental: Hepatocyte Incubations: An in vitro measure of metabolism using cells from rat and human liver. Rat and human hepatocyte suspensions (10^6 cells per mL of serum-free (H)CL15 culture medium) were incubated with 2 concentrations (1 and 5 μM) of each of the compounds. Stock solutions were prepared in DMSO, and were further diluted in culture medium to the final test concentrations. […] Samples were analyzed to measure the disappearance of parent compound over time. […]
readoutKind: Hepatocyte Human 60/120′ (5 uM): 60′

>  <molecule>
COc1cc2c(cc1C(N)=O)CC[C@@H]1[C@@H]2CC[C@]2(C)CCC[C@@H]12

>  <result>
117

$$$$
>  <molecule>
COc1cc2c(cc1C(N)=O)CC[C@@H]1[C@@H]2CC[C@]2(C)C=CC[C@@H]12

>  <result>
92

$$$$
>  <molecule>
C=C1CC[C@H]2[C@@H]3CCc4cc(C(N)=O)c(OC)cc4[C@H]3CC[C@]12C

>  <result>
96

$$$$
>  <molecule>
COc1cc2c(cc1O)CC[C@@H]1[C@@H]2CC[C@]2(C)[C@@H](O)CC[C@@H]12 [Compound 1, 2-Methoxyestradiol, reference compound]

>  <result>
20

$$$$
